Recorded measurements of protein stability index, one per entry
# Tested on: Saccharomyces cerevisiae
# Method summary: protein stability index of tFT-peptide fusion (C-terminal peptide) (PSI (0-1 scale)); higher = more stable (slower turnover);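 also: PSI is a weighted mean of sequencing reads over stability bins, variants kept only with over 10 reads, mCherry proximal and sfGFP distal, peptide attached via GGGS linker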
# Condition: genetic background: wild type; temperature: 37 C
Number, no unit, nothing else.

Field: example entries. Status: answers known.
{"Residues": "GGGWCEMLIVVG", "Observed result": 0.542}
{"Residues": "AWVLISNRRRIM", "Observed result": 0.502}
{"Residues": "FFVSFFFFLWLV", "Observed result": 0.189}

Let us examine a further case.
Please fill in: protein stability index reported for VTGYLSTLTMLC = 0.501

* * *

As shown below, each of these sequences has a reported protein stability index value.
# System: Saccharomyces cerevisiae
# Method summary: protein stability index of tFT-peptide fusion (C-terminal peptide) (PSI (0-1 scale)); higher = more stable (slower turnover)
# Condition: genetic background: wild type; temperature: 30 C
// print number alone

Examples with answers:
{"Residues": "PALPPPVLLRLP", "protein stability index": 0.557}
{"Residues": "PRQAPPSLPSPP", "protein stability index": 0.697}
{"Residues": "FVRWGWAVMLGG", "protein stability index": 0.571}
{"Residues": "RRTTTDSPRADR", "protein stability index": 0.708}
{"Residues": "KKKLKYKGIRTN", "protein stability index": 0.679}

Record PLTVPLPLALSP . Reported protein stability index: 0.684

The recorded protein stability index for SLPCCKVVFCVI is 0.449

* * *

This section presents sequences with their documented protein stability index values.
# Test system: Saccharomyces cerevisiae
# Method summary: protein stability index of tFT-peptide fusion (C-terminal peptide) (PSI (0-1 scale)); higher = more stable (slower turnover)
# Condition: genetic background: wild type; temperature: 30 C
Number, no unit, nothing else.

In the examples that follow, each entry is paired with its recorded protein stability index.
{"Residues": "ICSFVFTTLFGG", "protein stability index": 0.644}
{"Residues": "GVGGGGVGLWLG", "protein stability index": 0.656}
{"Residues": "DGGAGWLGLLGG", "protein stability index": 0.713}
{"Residues": "VLFPSPSPPLSS", "protein stability index": 0.7}
{"Residues": "TVILVLFPSPFL", "protein stability index": 0.51}

For record SVRGGSFLVHLC the listed protein stability index is 0.337

Record TPHAPTATPRDN , field protein stability index: 0.727

Form field protein stability index, entry APLPHAASSLPA : 0.698

Consider CLRFVFWFVCFV . Its measured protein stability index is 0.27

GET /value?item= SPPPMSPLLRPA &field=protein stability index returns 0.653

Query VMCWARGWVGST yields protein stability index of 0.655

// field: protein stability index; key: LKTLKHRLRHLE ; value = 0.732

Reported protein stability index ( GLAPPRPYPPPA ) = 0.728

Item: PPPPPPRPPSAH | protein stability index: 0.708

Documented protein stability index of PSPPPAPPPQPS : 0.678

For reference, reported protein stability index for PWGSGSDRAGRG stands at 0.746

Measured protein stability index, SPTRMSAFVRLD : 0.739

Consider HPLLPRPVPLTD . Its measured protein stability index is 0.665

Form field protein stability index, entry FPDPTPNLRPPP : 0.636
